assay_details: Stability in human plasma: short-term, freeze-thaw and long-term
Assay type: in vitro ADME
condition_info: three freeze–thaw cycles, plasma; high level (1250.0, 750.0, 750.0, 500.0 ng/mL); n = 8, ± SD
readout_type: Mean recovery (ng/mL)
Write the value in ng/mL as a bare number.

[
  {
    "compound": "O=c1ccc2ccccc2o1",
    "Mean recovery / ng/mL": 1307.7
  }
]

Value lookup for Mean recovery; key = O=c1ccc2ccc(O)cc2o1 [7-HCOU, 7-hydroxycoumarin]
714.8

Return reported Mean recovery; argument: `C=C1C[C@@]23CC[C@H]4[C@@](C)(CCC[C@@]4(C)C(=O)O)[C@@H]2CC[C@@H]1C3`
502.5

Sample `O=C(O)/C=C/c1ccccc1O` — what was its Mean recovery?
729.0
